Biological target: Serine/threonine-protein kinase DCLK1 (Homo sapiens, UniProt O15075)
Sequence (O15075 whole entry): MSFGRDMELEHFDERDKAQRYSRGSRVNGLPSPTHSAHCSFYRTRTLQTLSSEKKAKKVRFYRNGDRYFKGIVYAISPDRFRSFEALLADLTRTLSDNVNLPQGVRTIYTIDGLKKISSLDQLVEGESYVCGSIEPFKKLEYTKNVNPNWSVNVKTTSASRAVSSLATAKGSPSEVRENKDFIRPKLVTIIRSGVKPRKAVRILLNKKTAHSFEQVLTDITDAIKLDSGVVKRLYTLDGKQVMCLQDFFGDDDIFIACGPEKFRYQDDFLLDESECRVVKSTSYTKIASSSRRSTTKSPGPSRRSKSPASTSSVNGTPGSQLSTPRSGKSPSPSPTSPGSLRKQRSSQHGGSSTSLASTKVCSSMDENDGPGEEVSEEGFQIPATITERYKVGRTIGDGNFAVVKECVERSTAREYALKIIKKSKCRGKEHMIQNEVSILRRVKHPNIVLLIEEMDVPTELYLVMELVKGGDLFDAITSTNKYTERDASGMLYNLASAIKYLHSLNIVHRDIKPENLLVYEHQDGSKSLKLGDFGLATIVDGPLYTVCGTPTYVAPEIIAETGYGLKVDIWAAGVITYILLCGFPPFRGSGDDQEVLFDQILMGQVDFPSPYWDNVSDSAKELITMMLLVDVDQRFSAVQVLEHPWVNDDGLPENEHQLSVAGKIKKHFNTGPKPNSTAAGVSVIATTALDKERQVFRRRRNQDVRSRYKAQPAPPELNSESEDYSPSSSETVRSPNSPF
Property name: IC50 (nM)
Please state the figure in nM; there is no need to write the unit.

Please fill in: IC50 reported for CN1C(=O)c2sccc2N(C)c2nc(Nc3ccc(S(N)(=O)=O)cc3)ncc21 = 27.9
